Molecular target: UniProt:P0DMS8
Sequence (P0DMS8 whole entry): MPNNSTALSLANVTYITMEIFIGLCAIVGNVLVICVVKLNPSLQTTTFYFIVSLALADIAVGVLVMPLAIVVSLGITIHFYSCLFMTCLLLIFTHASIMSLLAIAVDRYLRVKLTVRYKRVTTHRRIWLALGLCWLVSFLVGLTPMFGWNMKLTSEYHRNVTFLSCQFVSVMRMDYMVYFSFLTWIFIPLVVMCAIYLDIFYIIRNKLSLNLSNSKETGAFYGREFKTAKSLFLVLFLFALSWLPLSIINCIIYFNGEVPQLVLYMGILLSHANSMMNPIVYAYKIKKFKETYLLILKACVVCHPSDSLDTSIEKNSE
Experiment: Radioligand binding competition assay, [125I]-MECA, membranes from CHO-K1 cells transfected with human A3 receptor
Collected Human A3 Receptor pKi values appear next to each entry.
MEASURED ENDPOINT: Human A3 Receptor pKi

OCc1ncc(Nc2nnc(-c3ccncc3F)c(-c3ccccc3F)n2)cn1 [Example 39] : 6.52
Cc1n[nH]c(Nc2nnc(-c3ccncc3F)c(-c3ccccc3F)n2)n1 [Example 15] : 4.48
CC(C)(O)c1ccc(Nc2nnc(-c3ccncc3F)c(-c3ccccc3F)n2)cn1 [Example 38] : 6.42
CNC(=O)Nc1nnc(-c2ccncc2F)c(-c2ccccc2F)n1 [Example 16] : 5.14
Cc1cc(Nc2nnc(-c3ccncc3F)c(-c3ccccc3F)n2)[nH]n1 [Example 14] : 4.68
